system: LPS-induced tumor necrosis factor-α (TNF-α) production in mixed glial cells; test: In vitro CNS inflammation assay; assay type: cell-based; conditions: Rattus norvegicus, Glial cell, 6 h, LPS 50 ng/ml, TNF-α ELISA
reported-property: IC50

Query OC1CCN(Cc2onc(-c3ccc(F)cc3)c2-c2ccnc(NC3CCCCC3)n2)CC1 on LPS-induced tumor necrosis factor-α (TNF-α) production in mixed glial cells; IC50 returned: ≤ 1000 nM
